Where do the numbers come from? From patent US20250129430A1.

# Tested on: SNU638
# assay.comment: Cell viability drug screen, 12-point dose-response AUC
# Type: cell-based, human
# test.settings: SNU638 cells; 72 hours
Counter-ions that a name gives are not always drawn.
assay.endpoint: Average Area Under the Viability Curve (AUC), AUC norm value

molecule: CN(C)Cc1c(C(=O)NCCOc2ccc(C(=O)NO)cc2)oc2ccccc12
observed.result: −0.06055

molecule: COC(=O)Nc1nc2ccc(C(=O)c3cccs3)cc2[nH]1
observed.result: −0.1875

molecule: CCOc1cc2ncc(C#N)c(Nc3ccc(OCc4ccccn4)c(Cl)c3)c2cc1NC(=O)/C=C/CN(C)C
observed.result: 0

molecule: Nc1nc(F)nc2c1ncn2[C@@H]1O[C@H](COP(=O)(O)O)[C@@H](O)[C@@H]1O [Fludarabine Phosphate (Fludara), Fludarabine Phosphate]
observed.result: 0.5006

molecule: COc1cccc2c1C(=O)c1c(O)c3c(c(O)c1C2=O)C[C@@](O)(C(C)=O)C[C@@H]3O[C@H]1C[C@H](N)[C@H](O)[C@H](C)O1 [Daunorubicin HCl (Daunomycin HCl), Daunorubicin HCl]
observed.result: −1.229

molecule: O=C(CCCCCCC(=O)Nc1ccccc1)NO [Vorinostat (SAHA), Vorinostat]
observed.result: −0.4313

molecule: Cc1ccc([N+](=O)[O-])cc1S(=O)(=O)N(C)/N=C/c1cnc2ccc(Br)cn12
observed.result: 1.312

====

# Tested on: SNU638
# assay.comment: Cell viability drug screen, 12-point dose-response AUC
# Format: cell-based, human
# test.settings: SNU638 cells; 72 hours
Counter-ions that a name gives are not always drawn.
The entries below come with measured Average Area Under the Viability Curve (AUC), AUC norm value values attached.
assay.endpoint: Average Area Under the Viability Curve (AUC), AUC norm value

compound: Cc1ccc(C(=O)N(CCCN)[C@@H](c2nc3cc(Cl)ccc3c(=O)n2Cc2ccccc2)C(C)C)cc1 [Ispinesib (SB-715992), Ispinesib]
observed.result: −0.203

compound: CC(C)[C@H](C(=O)Nc1ccc(C(=O)NO)cc1)c1ccccc1
observed.result: −0.7804

compound: Cn1cc(CNCC2CCN(c3ncc(C(=O)NO)cn3)CC2)c2ccccc21
observed.result: 0.1995

compound: CCCCc1oc2ccc(NS(C)(=O)=O)cc2c1C(=O)c1ccc(OCCCN(CCCC)CCCC)cc1 [Dronedarone HCl (Multaq), Dronedarone HCl]
observed.result: −0.5649

====

# Test system: SNU638
# assay.comment: Cell viability drug screen, 12-point dose-response AUC
# Type: cell-based, human
# test.settings: SNU638 cells; 72 hours
Where a name gives a salt, the structure may show the parent alone.
Average Area Under the Viability Curve (AUC), AUC norm value of 0.1 or higher: Condition met. Under 0.1: Condition not met.

compound: COc1cc(N2CCC(N3CCN(C)CC3)CC2)ccc1Nc1ncc(Cl)c(Nc2ccccc2S(=O)(=O)C(C)C)n1
assigned.category: Condition met
--
compound: CC[C@@H]1C(=O)N(C)c2cnc(Nc3ccc(C(=O)NC4CCN(C)CC4)cc3OC)nc2N1C1CCCC1
assigned.category: Condition met
--
compound: CC[C@@]1(O)C(=O)OCc2c1cc1n(c2=O)Cc2cc3c(CN(C)C)c(O)ccc3nc2-1 [Topotecan HCI, Topotecan HCl]
assigned.category: Condition not met
--
compound: CC[C@]1(O)C[C@H]2CN(CCc3c([nH]c4ccccc34)[C@@](C(=O)OC)(c3cc4c(cc3OC)N(C=O)[C@H]3[C@@](O)(C(=O)OC)[C@H](OC(C)=O)[C@]5(CC)C=CCN6CC[C@]43[C@@H]65)C2)C1
assigned.category: Condition met
--
compound: O=C(Nc1ccc([N+](=O)[O-])cc1Cl)c1cc(Cl)ccc1O [Niclosamide (Niclocide), Niclosamide]
assigned.category: Condition not met
--
compound: CC[C@]1(O)C[C@@H]2CN(CCc3c([nH]c4ccccc34)[C@@](C(=O)OC)(c3cc4c(cc3OC)N(C)[C@H]3[C@@](O)(C(=O)OC)[C@H](OC(C)=O)[C@]5(CC)C=CCN6CC[C@]43[C@@H]65)C2)C1
assigned.category: Condition met
--
compound: CC(C)C[C@H](NC(=O)CNC(=O)c1cc(Cl)ccc1Cl)B1OC(=O)C(CC(=O)O)(CC(=O)O)O1
assigned.category: Condition not met

====

The entries below come with measured area under the viability curve (AUC), normalized values attached.
# Tested on: KATO3
# assay.comment: Cell viability drug screen, 12-point dose-response AUC
# Format: cell-based, human
# test.settings: KATO3 cells; 72 hours; 12-point dose-response
assay.endpoint: area under the viability curve (AUC), normalized

compound: COC(=O)Nc1nc2ccc(Sc3ccccc3)cc2[nH]1
observed.result: 2.344
--
compound: CC(C)[C@]12O[C@H]1[C@@H]1O[C@]13[C@]1(O[C@H]1C[C@H]1C4=C(CC[C@@]13C)C(=O)OC4)[C@@H]2O [Triptolide]
observed.result: 5.715
--
compound: CC(C)C[C@H](NC(=O)CNC(=O)c1cc(Cl)ccc1Cl)B(O)O
observed.result: 0.7115

====

# Test system: SNU1967
# assay.comment: Cell viability drug screen, 12-point dose-response AUC
# Type: cell-based, human
# test.settings: SNU1967 cells; 72 hours; 12-point dose-response
assay.endpoint: area under the viability curve (AUC), normalized

compound: C[C@@H]1O[C@@H](O[C@H]2C[C@@H](O)[C@]3(CO)[C@H]4[C@H](O)C[C@]5(C)[C@@H](C6=CC(=O)OC6)CC[C@]5(O)[C@@H]4CC[C@]3(O)C2)[C@H](O)[C@H](O)[C@H]1O [Oubain, Ouabain]
system.tested: SNU1967
observed.result: 0.9873
//
compound: Nc1cc(C(F)(F)F)c(-c2cc(N3CCOCC3)nc(N3CCOCC3)n2)cn1 [BKM120]
system.tested: SNU1967
observed.result: 0.676
//
compound: CC(C)C[C@H](NC(=O)CNC(=O)c1cc(Cl)ccc1Cl)B(O)O [MLN2238]
system.tested: SNU1967
observed.result: −1.676

====

# System: SNU668
# assay.comment: Cell viability drug screen, 12-point dose-response AUC
# Type: cell-based, human
# test.settings: SNU668 cells (SEM subtype); 72 hours
The entries below come with measured Average Area Under the Viability Curve (AUC), AUC norm value values attached.
assay.endpoint: Average Area Under the Viability Curve (AUC), AUC norm value

molecule: CCOc1cc2ncc(C#N)c(Nc3ccc(OCc4ccccn4)c(Cl)c3)c2cc1NC(=O)/C=C/CN(C)C
system.tested: SNU668
observed.result: 0.8456
//
molecule: CC(C)n1nc(-c2ccc3oc(N)nc3c2)c2c(N)ncnc21
system.tested: SNU668
observed.result: 1.085
//
molecule: O=C(CCCCCCC(=O)Nc1ccccc1)NO [Vorinostat (SAHA), Vorinostat]
system.tested: SNU668
observed.result: 0.4303
//
molecule: CCCCCCCCCCCCCCCC[N+](C)(C)CCN(Cc1ccc(OC)cc1)c1ncccn1 [Thonzonium Bromide]
system.tested: SNU668
observed.result: 0.3151
//
molecule: Cc1ccc(C(=O)N(CCCN)[C@@H](c2nc3cc(Cl)ccc3c(=O)n2Cc2ccccc2)C(C)C)cc1 [Ispinesib (SB-715992), Ispinesib]
system.tested: SNU668
observed.result: 0.1001
//
molecule: CC[C@@H]1C(=O)N(C)c2cnc(Nc3ccc(C(=O)NC4CCN(C)CC4)cc3OC)nc2N1C1CCCC1
system.tested: SNU668
observed.result: −0.4211

====

# System: MKN74
# assay.comment: Cell viability drug screen, 12-point dose-response AUC
# Format: cell-based, human
# test.settings: MKN74 cells; 72 hours
Counter-ions that a name gives are not always drawn.
assay.endpoint: Average Area Under the Viability Curve (AUC), AUC norm value

compound: COc1cccc2c1C(=O)c1c(O)c3c(c(O)c1C2=O)C[C@@](O)(C(=O)CO)C[C@@H]3O[C@H]1C[C@H](N)[C@H](O)[C@H](C)O1 [Doxorubicin (Adriamycin), Doxorubicin]
system.tested: MKN74
observed.result: 1.522

compound: COc1cccc2c1C(=O)c1c(O)c3c(c(O)c1C2=O)C[C@@](O)(C(C)=O)C[C@@H]3O[C@H]1C[C@H](N)[C@H](O)[C@H](C)O1 [Daunorubicin HCl (Daunomycin HCl), Daunorubicin HCl]
system.tested: MKN74
observed.result: 1.215

compound: NC(=O)Nc1cc(-c2cccc(F)c2)sc1C(=O)N[C@H]1CCCNC1 [AZD7762]
system.tested: MKN74
observed.result: −0.4773

compound: Cc1ccc([N+](=O)[O-])cc1S(=O)(=O)N(C)/N=C/c1cnc2ccc(Br)cn12 [PIK-75]
system.tested: MKN74
observed.result: 0.2052

compound: CCC[C@H](NC(=O)/C(C#N)=C/c1cccc(Br)n1)c1ccccc1 [WP1130]
system.tested: MKN74
observed.result: −0.1908

====

The entries below come with measured area under the viability curve (AUC), normalized values attached.
# System: MKN28
# assay.comment: Cell viability drug screen, 12-point dose-response AUC
# Assay type: cell-based, human
# test.settings: MKN28 cells; 72 hours; 12-point dose-response
Structures can show the parent of a compound that is named as a salt.
assay.endpoint: area under the viability curve (AUC), normalized

compound: CC(/C=C/C(=O)NO)=C\[C@@H](C)C(=O)c1ccc(N(C)C)cc1
observed.result: −0.6515

compound: CC(C)[C@]12O[C@H]1[C@@H]1O[C@]13[C@]1(O[C@H]1C[C@H]1C4=C(CC[C@@]13C)C(=O)OC4)[C@@H]2O [Triptolide]
observed.result: −0.03132

compound: O=C1c2c(O)ccc(O)c2C(=O)c2c(NCCNCCO)ccc(NCCNCCO)c21 [Mitoxantrone Hydrochloride]
observed.result: 1.616
